Target: CRAC channels (Homo sapiens (Human), UniProt Q96D31)
Sequence (Q96D31 whole entry): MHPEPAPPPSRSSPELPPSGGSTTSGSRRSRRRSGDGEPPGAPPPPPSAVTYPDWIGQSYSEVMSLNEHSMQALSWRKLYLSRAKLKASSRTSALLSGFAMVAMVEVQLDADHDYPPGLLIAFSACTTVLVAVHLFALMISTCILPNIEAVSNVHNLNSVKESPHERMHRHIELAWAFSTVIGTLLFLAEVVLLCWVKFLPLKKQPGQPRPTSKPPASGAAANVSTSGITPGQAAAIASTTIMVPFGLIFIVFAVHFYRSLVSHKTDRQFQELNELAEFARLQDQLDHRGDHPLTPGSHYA
Assay: In-vitro CRAC channel inhibition assay in NCI-H460 cancer cell line (thapsigargin-induced calcium influx)
Assay type: cell-based
Settings: NCI-H460 cells, read-out: NCI-H460 Cell Ca assay IC 50 nM
Each entry below carries its reported IC50.
Numeric answer only, unit nM assumed.

{"Compound": "Cl.O=C(Cc1ccc2ncccc2c1)Nc1ccc(-n2nc(C3CC3)cc2C2CC2)cc1 [Example 10, hydrochloride]", "Target of assay": "CRAC channels (Homo sapiens (Human), UniProt Q96D31)", "IC50 [nM]": 72.7}

Exam item: Consider the compound shown here: O=C(Cn1cnc2ccccc21)Nc1ccc(-n2nc(C3CC3)cc2C2CC2)cc1 [Example 5] What is its recorded IC50?
Marked response: 79.9

====

Target: CRAC channels (Homo sapiens (Human))
Experiment: In-vitro CRAC channel inhibition assay in Jurkat cells (thapsigargin-induced calcium influx)
Assay type: cell-based
Details: 1 uM
# key: entry, value: inhibition at 1 µM
Number in %, nothing else.

Field: example entries. Status: answers known.
{"Molecule": "Nc1ncnc2c1ncn2CC(=O)Nc1ccc(-n2nc(C(F)(F)F)cc2C2CC2)cc1 [Example 24]", "Unit abbrev": "%", "inhibition at 1 µM": 14.8}
{"Molecule": "O=C(Cn1nc2ccccc2n1)Nc1ccc(-n2nc(C(F)(F)F)cc2C2CC2)nc1 [Example 33]", "Unit abbrev": "%", "inhibition at 1 µM": 49.5}

Exam item: For the molecule O=C(Nc1ccc(-n2nc(C3CC3)cc2C2CC2)cc1)c1ccc2nn[nH]c2c1 [Example 2] , what inhibition at 1 µM is on record?
Marked response: 78

Exam item: // inhibition at 1 µM lookup, key: O=C(Nc1ccc(-n2nc(C(F)(F)F)cc2C2CC2)nc1)c1ccc2[nH]nnc2c1 [Example 31]
Marked response: 50.6

====

Molecular target: CRAC channels (Homo sapiens (Human), UniProt Q96D31)
Assay: In-vitro CRAC channel inhibition assay in Jurkat cells (thapsigargin-induced calcium influx)
Assay type: cell-based
Details: 1 uM
Where a name gives a salt, the structure may show the parent alone.
Label F if inhibition at 1 µM falls below 70%; label T in every other case.

Recorded results for 5 compounds are shown here.
{"Compound": "O=C(Cc1ccc2ncccc2c1)Nc1ccc(-n2nc(C(F)(F)F)cc2C2CC2)cc1 [Example 27, Hydrochloride]", "Assigned category": "T"}
{"Compound": "O=C(NCc1ccc2ncccc2c1)c1ccc(-n2nc(C(F)(F)F)cc2C2CC2)c(F)c1 [Example 36, hydrochloride]", "Assigned category": "F"}
{"Compound": "O=C(Cn1nnc2ccccc21)Nc1ccc(-n2nc(C(F)(F)F)cc2C2CC2)cc1", "Assigned category": "T"}
{"Compound": "O=C(Nc1ccc(-n2nc(C(F)(F)F)cc2C2CC2)cc1)c1ccc2nccnc2c1", "Assigned category": "T"}
{"Compound": "O=C(Cn1nc2ccccc2n1)Nc1ccc(-n2nc(C(F)(F)F)cc2C2CC2)cc1", "Assigned category": "T"}

Exam item: Determine whether this compound has inhibition at 1 µM no lower than 70%: Cn1c(=O)c2c(ncn2CC(=O)Nc2ccc(-n3nc(C(F)(F)F)cc3C3CC3)cc2)n(C)c1=O
Marked response: F

Exam item: Form field: inhibition at 1 µM at least 70%? Entry: O=C(Cn1nnc2ccccc21)Nc1ccc(-n2nc(C(F)(F)F)cc2C2CC2)c(F)c1
Marked response: T

Exam item: Is reported inhibition at 1 µM greater than or equal to 70% here: O=C(Cn1nnc2ccccc21)Nc1ccc(-n2nc(C3CC3)cc2C2CC2)c(F)c1
Marked response: T

Exam item: Does inhibition at 1 µM meet or surpass 70% for O=C(Cc1cn2ccccc2n1)Nc1ccc(-n2nc(C3CC3)cc2C2CC2)cc1 [Example 8, Hydrochloride] ?
Marked response: F

Exam item: Given the entry O=C(Nc1ccc(-n2nc(C3CC3)cc2C2CC2)nc1)c1ccc2nccnc2c1 , answer whether its inhibition at 1 µM meets or surpasses 70%.
Marked response: F

Exam item: decide whether the reported inhibition at 1 µM for O=C(Nc1ccc(-n2nc(C3CC3)cc2C2CC2)cc1)c1ccc2ncccc2c1 [Example 3, hydrochloride] is at least 70%.
Marked response: T

Exam item: Reported inhibition at 1 µM at or above 70%? O=C(Cn1cnc2ccccc21)Nc1ccc(-n2nc(C3CC3)cc2C2CC2)cc1
Marked response: T

Exam item: Decide: inhibition at 1 µM of O=C(Nc1ccc(-n2nc(C3CC3)cc2C2CC2)cc1)c1ccc2nc[nH]c2c1 >= 70%?
Marked response: F

Exam item: Reported inhibition at 1 µM at or above 70%? O=C(Nc1ccc(-n2nc(C(F)(F)F)cc2C2CC2)c(F)c1)c1ccc2nn[nH]c2c1
Marked response: T

====

Tested on: TNFα
Assay: Inhibition of TNFα release in PBMC
Format: cell-based
Conditions: Homo sapiens, Concanavalin A + PMA, 20 h, read-out: IC 50 PBMC TNFα
Experimental readout: IC50 (nM)
// note: answer is a bare numeric in nM

Exam item: Give its IC50 value. Item: O=C(Cn1nnc2ccccc21)Nc1ccc(-n2nc(C(F)(F)F)cc2C2CC2)cc1
Marked response: 138

====

Molecular target: CRAC channels (Homo sapiens (Human), UniProt Q96D31)
Assay: In-vitro CRAC channel inhibition assay in Jurkat cells (thapsigargin-induced calcium influx)
Type: cell-based
Counter-ions that a name gives are not always drawn.
Field 'label' (enum: Criterion met / Criterion not met). Set to Criterion met when IC50 is strictly under 200 nM; else Criterion not met.

{"Molecule": "O=C(Cn1nc2ccccc2n1)Nc1ccc(-n2nc(C(F)(F)F)cc2C2CC2)cc1", "Assigned category": "Criterion met"}

Exam item: Consider O=C(Cn1cnc2ccccc21)Nc1ccc(-n2nc(C3CC3)cc2C2CC2)cc1 . Does its IC50 lie strictly below 200 nM?
Marked response: Criterion not met

Exam item: Is it true that IC50 reported for O=C(Nc1ccc(-n2nc(C(F)(F)F)cc2C2CC2)cc1)c1ccc2nccnc2c1 is less than 200 nM?
Marked response: Criterion met

Exam item: A record lists O=C(Cn1nnc2ccccc21)Nc1ccc(-n2nc(C3CC3)cc2C2CC2)cc1 . Is its IC50 below 200 nM?
Marked response: Criterion met

Exam item: IC50 under 200 nM? Item: O=C(Cn1nnc2ccccc21)Nc1ccc(-n2nc(C(F)(F)F)cc2C2CC2)c(F)c1
Marked response: Criterion met

Exam item: For this molecule, is IC50 lower than 200 nM? O=C(Nc1ccc(-n2nc(C3CC3)cc2C2CC2)cc1)c1ccc2nn[nH]c2c1
Marked response: Criterion met

Exam item: Take the molecule O=C(Cc1ccc2ncccc2c1)Nc1ccc(-n2nc(C3CC3)cc2C2CC2)c(F)c1 [Example 12, Hydrochloride] and say whether its IC50 is less than 200 nM.
Marked response: Criterion not met

Exam item: Bench note: check whether O=C(Cn1nnc2ccccc21)Nc1ccc(-n2nc(C(F)(F)F)cc2C2CC2)cc1 shows IC50 below 200 nM
Marked response: Criterion met

====

Reported inhibition at 1 µM values for the following molecules.
Target: CRAC channels (Homo sapiens (Human), UniProt Q96D31)
Experiment: In-vitro CRAC channel inhibition assay in Jurkat cells (thapsigargin-induced calcium influx)
Format: cell-based
Details: 1 uM
Structures can show the parent of a compound that is named as a salt.
Provide a numeric answer, followed by its unit.

{"Molecule": "O=C(Cn1nnc2ccccc21)Nc1ccc(-n2nc(C(F)(F)F)c(Cl)c2C2CC2)nc1 [Example 35]", "inhibition at 1 µM": "15%"}
{"Molecule": "O=C(Cc1ccc2ncccc2c1)Nc1ccc(-n2nc(C3CC3)cc2C2CC2)cc1 [Example 9]", "inhibition at 1 µM": "100%"}
{"Molecule": "O=C(Nc1ccc(-n2nc(C3CC3)cc2C2CC2)cc1)c1ccc2nccnc2c1 [Example 4]", "inhibition at 1 µM": "85%"}
{"Molecule": "O=C(Cn1nnc2cccnc21)Nc1ccc(-n2nc(C(F)(F)F)cc2C2CC2)cc1 [Example 22]", "inhibition at 1 µM": "30.9%"}
{"Molecule": "O=C(Nc1ccc(-n2nc(C3CC3)cc2C2CC2)cc1)Nc1ccc2ncccc2c1 [Example 37]", "inhibition at 1 µM": "57.3%"}
{"Molecule": "O=C(Nc1ccc(-n2nc(C(F)(F)F)cc2C2CC2)cc1)c1ccc2ncccc2c1 [Example 17, hydrochloride]", "inhibition at 1 µM": "94%"}

Could you now consider this next molecule?
Exam item: Fill in the blank: the reported inhibition at 1 µM of O=C(Cc1ccc2ncccc2c1)Nc1ccc(-n2nc(C3CC3)cc2C2CC2)c(F)c1 [Example 12, Hydrochloride] is ____.
Marked response: 100%

Source listed as patent US8993612B2.
